Data credit: patent US20160130305A1

Below: a set of entries, each annotated with reported IC50.
target_under_test: HLA A*0201 (human)
test: competition with radiolabeled probe peptide, purified MHC
readout: IC50

> print(dat)
                                     binder     val
1  VMAVGLVSI (modifications not checked) [NS2B1355-1363]   21 nM
2  FAGKTVWFV (modifications not checked) [NS31832-1840]   11 nM
3  SLCLMMILPA (modifications not checked) [C103-112]  5.7 nM
4  FLAHYIGTSL (modifications not checked) [M254-263]  4.8 nM
5  YAMCTNTFVL (modifications not checked) [E580-589]   33 nM
6  YQLWTALVSL (modifications not checked) [NS2A1271-1280]  1.7 nM
